Documented Population Pyknosed Nuclei (%) across a set of compounds
Test system: Fibroblast
PROTOCOL NOTES: Multiplex assay against human fibroblast
Assay type: toxicity, cell-based
TEST CONTEXT: 24 h, 10 µM, compound concentration 10 uM, replicate 1
Please give a number only; it is taken to be in %.

INPUT SMILES: O=C1N/C(=N/c2ccccc2F)S/C1=C\c1ccc(C(=O)O)cc1
PARAMETER: Population Pyknosed Nuclei (%)
UNITS TEXT: %
RECORDED VALUE: 18
--
INPUT SMILES: CCn1c(=O)c(-c2ccc(-c3cncs3)cc2Cl)cc2cnc(Nc3ccc(N4CCN(C)CC4)cc3)nc21
PARAMETER: Population Pyknosed Nuclei (%)
UNITS TEXT: %
RECORDED VALUE: 48
--
INPUT SMILES: O=C(Nc1ccc(Cl)cc1)Nc1cccc(-c2cccc(N3CCCC3)n2)c1
PARAMETER: Population Pyknosed Nuclei (%)
UNITS TEXT: %
RECORDED VALUE: 58
--
INPUT SMILES: CNC(=O)c1ccc(Nc2nc(OC3CCCC3)c3c(-c4ccc5nc(C)oc5c4)c[nH]c3n2)c(OC)c1
PARAMETER: Population Pyknosed Nuclei (%)
UNITS TEXT: %
RECORDED VALUE: 19

Field: next compound
For record `Cl.Oc1ccc2c3c1O[C@H]1c4[nH]c5c(c4C[C@@]4(O)[C@@H](C2)N(CC2CC2)CC[C@]314)C[C@@]1(O)[C@H]2Cc3ccc(O)c4c3[C@@]1(CCN2CC1CC1)[C@H]5O4` the listed Population Pyknosed Nuclei (%) is 19

----------
Test system: HEK-293T
PROTOCOL NOTES: Multiplex assay against HEK293T
Type: toxicity, cell-based
TEST CONTEXT: human, 12 h, 10 µM, compound concentration 10 uM, replicate 2
PARAMETER: Population Healthy Nuclei (%)
Use % as the unit, but write only the number.

In the examples that follow, each entry is paired with its recorded Population Healthy Nuclei (%).
COMPOUND: COCC(=O)NC/C=C/c1ccc2ncnc(Nc3ccc(Oc4ccc(C)nc4)c(C)c3)c2c1
Population Healthy Nuclei (%): 12
--
COMPOUND: COc1cccc2cc(-c3nc([C@H]4CC[C@H](C(=O)O)CC4)n4ncnc(N)c34)[nH]c12
Population Healthy Nuclei (%): 85

The reported HEK-293T Population Healthy Nuclei (%) of `CCCn1c(=O)c2[nH]c(-c3cnn(Cc4cccc(C(F)(F)F)c4)c3)nc2n(CC)c1=O` is 45

----------
Test system: Fibroblast
PROTOCOL NOTES: Multiplex assay against human fibroblast
Assay type: toxicity, cell-based
TEST CONTEXT: 24 h, 1 µM, compound concentration 1 uM, replicate 1
PARAMETER: Population Tubulin-Different-Phenotype (%)
Record the result as number plus unit.

Looking up `Cl.O=C(c1ccc(Nc2nccc(-c3cc4ccccc4s3)n2)cc1)N1CCC(N2CCCC2)CC1` , I found its Population Tubulin-Different-Phenotype (%) recorded as 10%

Form: molecule = O=C(Nc1ccc(-n2nc(-c3cccnc3)cc2C(F)(F)F)cn1)c1ccc(-c2ccccc2)c(F)c1 [BI 2049] ; Population Tubulin-Different-Phenotype (%) = 58%

# Population Tubulin-Different-Phenotype (%) of `CCn1c(=O)c(-c2ccc(-c3cncs3)cc2Cl)cc2cnc(Nc3ccc(N4CCN(C)CC4)cc3)nc21` = 40%

Lab book: Population Tubulin-Different-Phenotype (%) of `COC(=N)c1nc2ccc3ncnc(Nc4ccc(OC)cc4F)c3c2s1` noted as 1%

Lookup result for `Cc1ccc(C(=O)Nc2cccc(C(F)(F)F)c2)cc1Nc1nc(-c2cccnc2)nc2c1cnn2C` ; measured Population Tubulin-Different-Phenotype (%): 43%

Input `Cc1cc(C)c(S(=O)(=O)N(Cc2ccc(-c3cccc(S(C)(=O)=O)c3)cc2)Cc2ccc(C(F)(F)F)o2)c(C)c1` . Output Population Tubulin-Different-Phenotype (%): 58%

----------
System: Fibroblast
PROTOCOL NOTES: Multiplex assay against human fibroblast
Type: toxicity, cell-based
TEST CONTEXT: 12 h, 10 µM, compound concentration 10 uM, replicate 1
PARAMETER: Population Apoptotic (%)

Examples with their reported Population Apoptotic (%) follow.
COMPOUND: CN1C2CCC1CC(OC(c1ccc(F)cc1)c1ccc(F)cc1)C2.Cl (configuration not stated)
Population Apoptotic (%): 64%

COMPOUND: O=C1NC(=O)C(c2cnc3ccccn23)=C1c1cn2c3c(cc(F)cc13)CN(C(=O)N1CCCCC1)CC2 [LY-2090314]
Population Apoptotic (%): 61%

COMPOUND: COCC(=O)NC/C=C/c1ccc2ncnc(Nc3ccc(Oc4ccc(C)nc4)c(C)c3)c2c1 [CP-724714]
Population Apoptotic (%): 51%

COMPOUND: Cc1cc(C)c(S(=O)(=O)N(Cc2ccc(-c3cccc(S(C)(=O)=O)c3)cc2)Cc2ccc(C(F)(F)F)o2)c(C)c1
Population Apoptotic (%): 51%

COMPOUND: CCCn1c(=O)c2[nH]c(-c3cnn(Cc4cccc(C(F)(F)F)c4)c3)nc2n(CC)c1=O [GS 6201]
Population Apoptotic (%): 76%

Form field Population Apoptotic (%), entry CCN1CCN(c2ccc(Nc3cc(N(C)C(=O)Nc4c(Cl)c(OC)cc(OC)c4Cl)ncn3)cc2)CC1 [INFIGRATINIB] : 61%

The compound listed as `Cl.Oc1ccc2c3c1O[C@H]1c4[nH]c5c(c4C[C@@]4(O)[C@@H](C2)N(CC2CC2)CC[C@]314)C[C@@]1(O)[C@H]2Cc3ccc(O)c4c3[C@@]1(CCN2CC1CC1)[C@H]5O4` has a reported Population Apoptotic (%) of 69%

The compound listed as O=C(Nc1ccc(-n2nc(-c3cccnc3)cc2C(F)(F)F)cn1)c1ccc(-c2ccccc2)c(F)c1 [BI 2049] shows Population Apoptotic (%) equal to 58%

The measured Population Apoptotic (%) associated with CCOC(=O)c1c(C)[nH]c2ccc3c(c12)CN1CCc2cc(OC)ccc2C1O3 (configuration not stated) reads 82%

Memo: C=C1/C(=C\C=C2/CCC[C@]3(C)[C@@H]([C@H](C)/C=C/[C@H](C)C(C)C)CC[C@@H]23)C[C@@H](O)C[C@@H]1O [DOXERCALCIFEROL] , reported Population Apoptotic (%): 30%

Consider `COc1cc(N2CCN(C)CC2)ccc1Nc1ncc2c(n1)N(C)c1ccccc1C(=O)N2C` . Its measured Population Apoptotic (%) is 65%

// sample `COC(=N)c1nc2ccc3ncnc(Nc4ccc(OC)cc4F)c3c2s1` , its Population Apoptotic (%) was 76%

// field: Population Apoptotic (%); key: `CCc1cccc(CC)c1NC(=O)c1nn(C)c2c1CCc1cnc(Nc3ccc(N4CCN(C)CC4)cc3OC)nc1-2` ; value = 71%

Query COc1ccc(-c2ccc3c(N4CCOCC4)nc(N4C[C@@H](C)O[C@@H](C)C4)nc3n2)cc1CO [Ku-0063794] yields Population Apoptotic (%) of 77%

The reported value for CN1CCC(=C2c3ccccc3CC(=O)c3sccc32)CC1.O=C(O)/C=C/C(=O)O [KETOTIFEN FUMARATE] in terms of Population Apoptotic (%) is 73%

----------
Test system: HEK-293T
PROTOCOL NOTES: Multiplex assay against HEK293T
Format: toxicity, cell-based
TEST CONTEXT: human, 48 h, 1 µM, compound concentration 1 uM, replicate 1
PARAMETER: Population Normal (%)
Just the number please, in %, no unit attached.

Solved cases below.
MOLECULE: COc1cc(N2CCN(C)CC2)ccc1Nc1ncc2c(n1)N(C)c1ccccc1C(=O)N2C
Population Normal (%): 91
//
MOLECULE: O=C1NC(=O)C(c2cnc3ccccn23)=C1c1cn2c3c(cc(F)cc13)CN(C(=O)N1CCCCC1)CC2
Population Normal (%): 85
//
MOLECULE: O=C(Nc1ccc(Cl)cc1)Nc1cccc(-c2cccc(N3CCCC3)n2)c1
Population Normal (%): 90

Reported Population Normal (%) for `C=C1/C(=C\C=C2/CCC[C@]3(C)[C@@H]([C@H](C)/C=C/[C@H](C)C(C)C)CC[C@@H]23)C[C@@H](O)C[C@@H]1O` was 83

response.value for CN1CCC(=C2c3ccccc3CC(=O)c3sccc32)CC1.O=C(O)/C=C/C(=O)O [KETOTIFEN FUMARATE] (field: Population Normal (%)) = 84

# Population Normal (%) (molecule: `CNc1cc(Oc2cc(C(=O)Nc3cc(N4CCN(C)CC4)cc(C(F)(F)F)c3)ccc2C)ncn1` ) is 81

Value of Population Normal (%) reported for the molecule `S=C(NCCCc1c[nH]cn1)NCCCN(Cc1ccc(Cl)c(Cl)c1)c1ccc(Br)cn1` is 76

Kindly note the recorded Population Normal (%) for `CCN1CCN(Cc2ccc(Nc3ncc(F)c(-c4cc(F)c5nc(C)n(C(C)C)c5c4)n3)nc2)CC1.CS(=O)(=O)O` , which is 82

Briefly, Population Normal (%) measured for CN(C)C(=O)C(CCN1CCC(O)(c2ccc(Cl)cc2)CC1)(c1ccccc1)c1ccccc1.Cl [LOPERAMIDE HYDROCHLORIDE] : 83

Field Population Normal (%) (entry `O=C(Nc1ccc(-c2ccnc(Nc3ccc(N4CCOCC4)cc3)n2)cc1)[C@@H]1CCCN1` ) reads 92

Field Population Normal (%) (entry `O=C1N/C(=N/c2ccccc2F)S/C1=C\c1ccc(C(=O)O)cc1` ) reads 83

Notebook: `Cc1cn(-c2cc(NC(=O)c3ccc(C)c(Nc4nccc(-c5cccnc5)n4)c3)cc(C(F)(F)F)c2)cn1` , Population Normal (%) read as 80
